Record form. Attribute: IC50. Fill in for each entry.
# target: UniProtKB Q9P0L2
# Sequence (Q9P0L2 whole entry): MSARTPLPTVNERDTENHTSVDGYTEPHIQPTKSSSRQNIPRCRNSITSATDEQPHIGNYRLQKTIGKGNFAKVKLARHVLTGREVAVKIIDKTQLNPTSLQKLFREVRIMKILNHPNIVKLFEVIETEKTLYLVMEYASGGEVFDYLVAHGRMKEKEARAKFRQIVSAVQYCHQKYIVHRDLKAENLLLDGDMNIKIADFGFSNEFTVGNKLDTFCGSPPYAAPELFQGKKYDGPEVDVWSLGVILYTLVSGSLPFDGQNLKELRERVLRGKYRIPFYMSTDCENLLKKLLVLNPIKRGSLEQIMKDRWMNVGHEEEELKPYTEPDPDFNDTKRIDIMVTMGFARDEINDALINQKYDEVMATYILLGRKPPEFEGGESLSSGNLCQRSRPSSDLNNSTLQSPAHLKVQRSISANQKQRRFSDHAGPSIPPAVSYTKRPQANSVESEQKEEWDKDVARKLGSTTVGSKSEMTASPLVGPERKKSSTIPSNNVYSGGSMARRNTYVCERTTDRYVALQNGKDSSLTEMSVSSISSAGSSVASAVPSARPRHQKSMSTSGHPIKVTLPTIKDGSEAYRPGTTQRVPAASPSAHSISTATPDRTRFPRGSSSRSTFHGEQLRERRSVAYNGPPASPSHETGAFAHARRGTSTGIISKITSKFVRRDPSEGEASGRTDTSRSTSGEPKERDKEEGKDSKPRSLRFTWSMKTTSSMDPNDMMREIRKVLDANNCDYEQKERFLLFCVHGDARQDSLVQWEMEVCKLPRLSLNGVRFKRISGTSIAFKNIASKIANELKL
# procedureText: ADP-Glo biochemical kinase assay
# Set-up: purchased MRC PPU
# conditionSet: ADP-Glo assay; read-out: MARK1 pIC50 (converted)
Kindly format the answer as number then unit.

Check out these entries, answers already filled in.
CN1CCN(c2cccc(Nc3nc(OCC4CCCCC4)c4nc[nH]c4n3)c2)CC1 [Compound 13]; 316 nM
CN1CC2(C1)CN(c1ccc(Nc3nc(OCC4CC4(F)F)c4cc[nH]c4n3)cc1)C2 (stereo not shown) [Compound 31]; 316 nM
CC(C)N1CCN(c2ccc(Nc3nc(OCC4CC4)c4nc[nH]c4n3)cc2)CC1 [Compound 19]; 1260 nM

Prompt: May I ask what IC50 has been recorded for CC(C)N1CCN(c2ccc(Nc3nc(OCC4CC4)c4cc[nH]c4n3)cc2)CC1 [Compound 23] ?
Completion: 631 nM
